TARGET ENTITY: RON (human) (Homo sapiens, UniProt Q04912)
Sequence (Q04912 25-1400): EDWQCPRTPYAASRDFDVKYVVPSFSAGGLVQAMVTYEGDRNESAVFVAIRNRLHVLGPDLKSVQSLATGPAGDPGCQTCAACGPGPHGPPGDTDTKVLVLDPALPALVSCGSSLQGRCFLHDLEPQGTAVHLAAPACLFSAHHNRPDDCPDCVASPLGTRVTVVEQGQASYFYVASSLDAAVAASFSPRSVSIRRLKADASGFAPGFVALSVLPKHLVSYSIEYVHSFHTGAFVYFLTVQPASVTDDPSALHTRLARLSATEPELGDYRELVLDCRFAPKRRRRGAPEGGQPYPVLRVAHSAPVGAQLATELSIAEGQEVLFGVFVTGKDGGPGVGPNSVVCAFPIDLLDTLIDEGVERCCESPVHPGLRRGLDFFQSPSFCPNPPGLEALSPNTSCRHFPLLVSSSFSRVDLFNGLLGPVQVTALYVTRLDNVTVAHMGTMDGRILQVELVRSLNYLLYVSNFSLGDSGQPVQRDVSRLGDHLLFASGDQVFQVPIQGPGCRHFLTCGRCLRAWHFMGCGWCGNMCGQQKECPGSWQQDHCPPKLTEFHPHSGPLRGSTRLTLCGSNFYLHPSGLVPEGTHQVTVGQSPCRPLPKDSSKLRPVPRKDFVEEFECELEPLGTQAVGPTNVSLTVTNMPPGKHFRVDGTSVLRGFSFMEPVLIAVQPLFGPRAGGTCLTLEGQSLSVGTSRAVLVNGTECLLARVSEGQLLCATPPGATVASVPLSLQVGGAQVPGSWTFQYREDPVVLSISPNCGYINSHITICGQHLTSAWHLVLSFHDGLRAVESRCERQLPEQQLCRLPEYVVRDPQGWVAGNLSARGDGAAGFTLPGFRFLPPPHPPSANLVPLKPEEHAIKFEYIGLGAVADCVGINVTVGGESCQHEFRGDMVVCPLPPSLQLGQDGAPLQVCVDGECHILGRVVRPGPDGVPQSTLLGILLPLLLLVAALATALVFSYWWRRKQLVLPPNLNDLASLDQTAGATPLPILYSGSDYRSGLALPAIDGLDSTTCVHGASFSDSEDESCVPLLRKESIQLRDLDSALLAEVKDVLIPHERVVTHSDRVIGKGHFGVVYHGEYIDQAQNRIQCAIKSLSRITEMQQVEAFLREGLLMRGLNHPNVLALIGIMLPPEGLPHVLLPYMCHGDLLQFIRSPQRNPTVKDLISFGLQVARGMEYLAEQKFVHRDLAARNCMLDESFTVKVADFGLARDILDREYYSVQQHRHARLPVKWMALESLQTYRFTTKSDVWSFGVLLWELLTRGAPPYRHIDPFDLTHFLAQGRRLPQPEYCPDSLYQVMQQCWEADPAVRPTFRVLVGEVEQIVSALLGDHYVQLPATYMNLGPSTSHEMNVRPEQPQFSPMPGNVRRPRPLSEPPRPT
TEST METHOD NOTES: RON (human) AlphaScreen kinase assay, Km of ATP
Format: biochemical
DETAILS: AlphaScreen, Km of ATP; read-out: RON biochemical IC50
pIC50: −log10 of the molar value.
ASSAY ENDPOINT: pIC50

>>> reported("C[C@@H](Oc1c(N)ncc2c(C3=CCN(C(=O)[C@H]4CCNC4)CC3)coc12)c1c(Cl)ccc(F)c1Cl")
"> 6.30"
>>> reported("CC(Cc1c(F)cccc1F)Oc1c(N)ncc2c(-c3cnn(C4CCNCC4)c3)coc12 (stereo not drawn)")
"5.30 to 6.30"
>>> reported("C[C@@H](Oc1c(N)ncc2c(C(=O)NC3CCN(C(=O)OC(C)(C)C)CC3)coc12)c1c(Cl)ccc(F)c1Cl")
"4.70 to 5.30"
>>> reported("C[C@@H](Oc1c(N)ncc2c(-c3ccsc3)coc12)c1c(Cl)ccc(F)c1Cl")
"5.30 to 6.30"
>>> reported("COc1cccc(C(C)Oc2c(N)ncc3c(-c4cnn(C5CCNCC5)c4)coc23)c1 (stereo not drawn)")
"5.30 to 6.30"
>>> reported("C[C@@H](Oc1c(N)ncc2c(C3=CCN(C(=O)c4ccc[nH]4)CC3)coc12)c1c(Cl)ccc(F)c1Cl")
"5.30 to 6.30"
>>> reported("C[C@@H](Oc1c(N)ncc2c(-c3ccc(C(=O)NCCN4CCCCC4)cc3)coc12)c1c(Cl)ccc(F)c1Cl")
"5.30 to 6.30"
>>> reported("CCNC(=O)c1csc(-c2coc3c(O[C@H](C)c4c(Cl)ccc(F)c4Cl)c(N)ncc23)c1")
"4.70 to 5.30"
>>> reported("Cc1ccc(C(C)Oc2c(N)ncc3c(-c4cnn(C5CCNCC5)c4)coc23)cc1 (stereo not drawn)")
"5.30 to 6.30"
>>> reported("C[C@@H](Oc1c(N)ncc2c(C3=CCN(S(C)(=O)=O)CC3)coc12)c1c(Cl)ccc(F)c1Cl")
"5.30 to 6.30"
>>> reported("C[C@@H](Oc1c(N)ncc2c(-c3ccc(CO)nc3)coc12)c1c(Cl)ccc(F)c1Cl")
"5.30 to 6.30"
>>> reported("CC(Oc1c(N)ncc2c(-c3cnn(C4CCNCC4)c3)coc12)c1ccccc1C(F)(F)F (stereo not drawn)")
"5.30 to 6.30"
>>> reported("C[C@@H](Oc1c(N)ncc2c(C3=CCN(S(N)(=O)=O)CC3)coc12)c1c(Cl)ccc(F)c1Cl")
"5.30 to 6.30"
>>> reported("C[C@@H](Oc1c(N)ncc2c(-c3cccc(C(N)=O)c3)coc12)c1c(Cl)ccc(F)c1Cl")
"5.30 to 6.30"
>>> reported("C[C@@H](Oc1c(N)ncc2c(-c3cc(C(=O)O)cs3)coc12)c1c(Cl)ccc(F)c1Cl")
"4.70 to 5.30"

###

Property: pIC50; scope: individual compounds
TARGET ENTITY: UniProt:Q04912
TEST METHOD NOTES: RON (human) AlphaScreen kinase assay, Km of ATP
Assay type: biochemical
DETAILS: AlphaScreen, Km of ATP; read-out: RON biochemical IC50
pIC50: −log10 of the molar value.
ASSAY ENDPOINT: pIC50

>>> reported("CC(Oc1c(N)ncc2c(-c3cnn(C4CCNCC4)c3)coc12)c1cccc(C#N)c1 (stereo not shown) [Example 393]")
"5.30 to 6.30"
>>> reported("C[C@@H](Oc1c(N)ncc2c(C3=CCN(C(=O)[C@@H](O)c4ccccc4)CC3)coc12)c1c(Cl)ccc(F)c1Cl [Example 265]")
"> 6.30"
>>> reported("C[C@@H](Oc1c(N)ncc2c(-c3ccc(CN4CCCC4)s3)coc12)c1c(Cl)ccc(F)c1Cl [Example 213]")
"> 6.30"
>>> reported("CC(Oc1c(N)ncc2c(-c3cnn(C4CCNCC4)c3)coc12)c1cccc(-c2ccn[nH]2)c1 (stereo not shown) [Example 446]")
"> 6.30"
>>> reported("C=C(C)CC(Oc1c(N)ncc2c(-c3cnn(C4CCNCC4)c3)coc12)c1c(Cl)cccc1Cl (stereo not shown) [Example 363]")
"5.30 to 6.30"
>>> reported("C[C@@H](Oc1c(N)ncc2c(-c3ccc(CN4CCSCC4)s3)coc12)c1c(Cl)ccc(F)c1Cl [Example 219]")
"5.30 to 6.30"
>>> reported("C[C@@H](Oc1c(N)ncc2c(C3=CCN(CC4CCCCC4)CC3)coc12)c1c(Cl)ccc(F)c1Cl [Example 38]")
"> 6.30"

###

Reported values of IC50 for individual entries
TARGET ENTITY: RON (human) (Homo sapiens)
TEST METHOD NOTES: RON (human) AlphaScreen kinase assay, Km of ATP
Format: biochemical
DETAILS: AlphaScreen, Km of ATP; read-out: RON biochemical IC50
ASSAY ENDPOINT: IC50

>>> reported("CCCC(Oc1c(N)ncc2c(-c3cnn(C4CCNCC4)c3)coc12)c1c(Cl)ccc(F)c1Cl (stereo not shown)")
"< 0.5 µM"
>>> reported("C[C@@H](Oc1c(N)ncc2c(-c3cccc(NS(=O)(=O)c4ccccc4)c3)coc12)c1c(Cl)ccc(F)c1Cl")
"5 to 20 µM"
>>> reported("CC(Oc1c(N)ncc2c(-c3cnn(C4CCNCC4)c3)coc12)c1ccc(C(N)=O)cc1 (stereo not shown)")
"5 to 20 µM"
>>> reported("CNC(=O)c1ccc(-c2coc3c(O[C@H](C)c4c(Cl)ccc(F)c4Cl)c(N)ncc23)cc1")
"0.5 to 5 µM"
>>> reported("C[C@H](Oc1c(N)ncc2c(-c3cnn(C4CCNCC4)c3)coc12)c1ccccn1")
"0.5 to 5 µM"
>>> reported("C[C@@H](Oc1c(N)ncc2c(-c3cccc(C(=O)N4CCN(C)CC4)c3)coc12)c1c(Cl)ccc(F)c1Cl")
"0.5 to 5 µM"
>>> reported("C[C@@H](Oc1c(N)ncc2c(-c3ccc(CN(C)C)s3)coc12)c1c(Cl)ccc(F)c1Cl")
"< 0.5 µM"

###

TARGET ENTITY: RON (human) (Homo sapiens, UniProt Q04912)
TEST METHOD NOTES: RON (human) AlphaScreen kinase assay, Km of ATP
Assay type: biochemical
DETAILS: AlphaScreen, Km of ATP; read-out: RON biochemical IC50
pIC50: −log10 of the molar value.
Measured pIC50 accompanies every entry in the list below.
ASSAY ENDPOINT: pIC50

>>> reported("C[C@@H](Oc1c(N)ncc2c(C3=CCN(C(=O)[C@H](N)c4ccccc4)CC3)coc12)c1c(Cl)ccc(F)c1Cl")
"> 6.30"
>>> reported("CC(Cc1ccc(Cl)cc1)Oc1c(N)ncc2c(-c3cnn(C4CCNCC4)c3)coc12 (centres unmarked)")
"5.30 to 6.30"
>>> reported("C[C@@H](Oc1c(N)ncc2c(-c3ccc(CN4CCC4)s3)coc12)c1c(Cl)ccc(F)c1Cl")
"> 6.30"
>>> reported("C[C@@H](Oc1c(N)ncc2c(C(=O)NC3CCNCC3)coc12)c1c(Cl)ccc(F)c1Cl")
"5.30 to 6.30"
>>> reported("CC(Oc1c(N)ncc2c(-c3cnn(C4CCNCC4)c3)coc12)c1cc(F)cc(-c2cn[nH]c2)c1 (centres unmarked)")
"5.30 to 6.30"
>>> reported("C[C@@H](Oc1c(N)ncc2c(-c3ccc(Cn4cccn4)cc3)coc12)c1c(Cl)ccc(F)c1Cl")
"5.30 to 6.30"
>>> reported("C[C@@H](Oc1c(N)ncc2c(-c3cnc(N)nc3)coc12)c1c(Cl)ccc(F)c1Cl")
"5.30 to 6.30"
>>> reported("N#CCc1ccccc1COc1c(N)ncc2c(-c3cnn(C4CCNCC4)c3)coc12")
"5.30 to 6.30"

###

TARGET ENTITY: RON (human) (Homo sapiens, UniProt Q04912)
TEST METHOD NOTES: RON (human) AlphaScreen kinase assay, Km of ATP
Format: biochemical
DETAILS: AlphaScreen, Km of ATP; read-out: RON biochemical IC50
ASSAY ENDPOINT: IC50

>>> reported("C#CCC(Oc1c(N)ncc2c(-c3cnn(C4CCNCC4)c3)coc12)c1c(Cl)ccc(F)c1Cl (stereo not drawn)")
"0.5 to 5 µM"
>>> reported("C[C@@H](Oc1c(N)ncc2c(-c3cnn(C4CCNCC4)c3)coc12)c1ccccc1Cl")
"0.5 to 5 µM"
>>> reported("C[C@@H](Oc1c(N)ncc2c(-c3ccc(CN4CCOCC4)cc3)coc12)c1c(Cl)ccc(F)c1Cl")
"0.5 to 5 µM"
>>> reported("COc1ncc(-c2coc3c(O[C@H](C)c4c(Cl)ccc(F)c4Cl)c(N)ncc23)cn1")
"5 to 20 µM"
>>> reported("C[C@@H](Oc1c(N)ncc2c(-c3ccc(C=O)s3)coc12)c1c(Cl)ccc(F)c1Cl")
"0.5 to 5 µM"
>>> reported("C[C@@H](Oc1c(N)ncc2c(-c3ccc(C(=O)N(C)C)cc3)coc12)c1c(Cl)ccc(F)c1Cl")
"0.5 to 5 µM"
>>> reported("C[C@@H](Oc1c(N)ncc2c(-c3cccc(C(=O)NCCN4CCCC4)c3)coc12)c1c(Cl)ccc(F)c1Cl")
"0.5 to 5 µM"
>>> reported("CCC(Oc1c(N)ncc2c(-c3cnn(C4CCNCC4)c3)coc12)c1c(Cl)ccc(F)c1Cl (stereo not drawn)")
"< 0.5 µM"
>>> reported("C[C@@H](Oc1c(N)ncc2c(C3=CCN(C(=O)[C@H](O)c4ccccc4)CC3)coc12)c1c(Cl)ccc(F)c1Cl")
"0.5 to 5 µM"
>>> reported("CC(Oc1c(N)ncc2c(-c3cnn(C4CCNCC4)c3)coc12)c1cc(F)cc(-c2ccccc2)c1 (stereo not drawn)")
"0.5 to 5 µM"
>>> reported("CC(C)N1CC=C(c2coc3c(O[C@H](C)c4c(Cl)ccc(F)c4Cl)c(N)ncc23)CC1")
"< 0.5 µM"
>>> reported("C[C@@H](Oc1c(N)ncc2c(-c3ccc(OCCCN(C)C)nc3)coc12)c1c(Cl)ccc(F)c1Cl")
"< 0.5 µM"
>>> reported("C[C@@H](Oc1c(N)ncc2c(-c3ccc(C(=O)NCCO)cc3)coc12)c1c(Cl)ccc(F)c1Cl")
"0.5 to 5 µM"
>>> reported("CC(Oc1c(N)ncc2c(-c3cnn(C4CCNCC4)c3)coc12)c1cccc(-c2ccccc2)c1 (stereo not drawn)")
"0.5 to 5 µM"
>>> reported("C[C@@H](Oc1c(N)ncc2c(-c3cccc(CN(C)C)c3)coc12)c1c(Cl)ccc(F)c1Cl")
"0.5 to 5 µM"

Reference source: patent US8022206B2
